- TEST PROTOCOL: Cynomolgus monkey absorption test (pharmacokinetics)
- Type: in vivo, cynomolgus monkeys
- EXPERIMENTAL SETUP: both sexes, cynomolgus monkey, plasma, po, 3 mg/kg, cynomolgus monkeys, single oral 3 mg/kg; read-out: peak concentration (Cmax)
TEST READOUT: Cmax (µM)

COMPOUND | RESULT NUMBER
Cc1cc(-c2c(-c3ccccc3)nc(N)n3nc(CO)nc23)cc(C(F)(F)F)n1 [ILB-2109] | 8.19

---

- TEST PROTOCOL: SD rat absorption test (pharmacokinetics)
- Format: in vivo, SD rats
- EXPERIMENTAL SETUP: Sprague-Dawley, rat, plasma; female SD rats, single oral 120 mg/kg; read-out: peak concentrations (Cmax)

SAMPLE SMILES | Cmax, µM
Cc1cc(-c2c(-c3ccccc3)nc(N)n3nc(CO)nc23)cc(C(F)(F)F)n1 | 155
